Target: GST-HsPRMT7 (Homo sapiens)
Construct: full-length human PRMT7 (residues 1–692); 34693; host or cells: E. coli BL21 DE3
Sequence (Q9NVM4 1-692): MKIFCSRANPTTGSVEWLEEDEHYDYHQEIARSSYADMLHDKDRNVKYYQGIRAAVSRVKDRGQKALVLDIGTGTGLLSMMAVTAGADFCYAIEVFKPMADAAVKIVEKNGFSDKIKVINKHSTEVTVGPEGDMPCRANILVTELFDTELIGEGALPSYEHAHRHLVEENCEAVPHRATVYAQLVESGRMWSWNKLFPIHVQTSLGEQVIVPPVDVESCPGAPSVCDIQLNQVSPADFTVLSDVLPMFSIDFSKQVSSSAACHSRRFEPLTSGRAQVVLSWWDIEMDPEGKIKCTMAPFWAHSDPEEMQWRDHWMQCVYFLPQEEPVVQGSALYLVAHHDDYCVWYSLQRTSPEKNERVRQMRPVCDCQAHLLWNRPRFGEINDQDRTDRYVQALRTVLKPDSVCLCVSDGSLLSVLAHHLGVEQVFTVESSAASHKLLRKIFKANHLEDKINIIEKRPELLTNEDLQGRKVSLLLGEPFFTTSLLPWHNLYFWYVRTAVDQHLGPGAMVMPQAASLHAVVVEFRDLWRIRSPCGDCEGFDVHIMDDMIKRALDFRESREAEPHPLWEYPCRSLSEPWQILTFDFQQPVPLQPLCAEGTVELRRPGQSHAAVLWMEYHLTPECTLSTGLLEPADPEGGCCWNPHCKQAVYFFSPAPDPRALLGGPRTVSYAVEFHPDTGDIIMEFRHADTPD
Test: Michaelis-Menten kinetics of peptide substrate methylation (P81 phosphocellulose paper assay)
Type: biochemical
Settings: no salt; 5 μg GST-HsPRMT7, 0.14 μM [3H]-AdoMet, 60 min, 25°C; GraphPad Prism fit; read-out: Km, Michaelis-Menten best-fit value, Fig8
Observed Property: Km (µM)
Provide only the numeric value, understood in µM.

[ask] Query Km on GST-HsPRMT7 (Homo sapiens) for Ac-KKGGRGGGGKKY-NH2 [Mono R, synthetic peptide with a single arginine flanked by glycine and lysine residues]
[reply] 1.42

[ask] Next substance up: Ac-KKDGKKRKRSRKESY-NH2 [Hs H2B (23–37), synthetic peptide of amino acids 23–37 of human histone H2B, PRMT7 substrate used as positive control, reference compound]
[reply] 0.558

[ask] Param item: Ac-KKGGRGRGGKKY-NH2 [synthetic peptide with an RGR motif flanked by glycine and lysine residues]
[reply] 0.743

[ask] Now this one: Ac-KKGGRGRKGKKY-NH2 [synthetic RXR peptide with an additional lysine after the RGR motif]
[reply] 0.514

[ask] Same lookup for Ac-KKGKRGRGGKKY-NH2 [synthetic RXR peptide with an additional lysine before the RGR motif] , please.
[reply] 0.601

[ask] What do you get for Ac-KKGGRKRGGKKY-NH2 [synthetic RXR peptide with lysine within the motif] ?
[reply] 0.553

[ask] What about Ac-KKGGRERGGKKY-NH2 [synthetic RXR peptide with glutamate within the motif] ?
[reply] 2.79

Data origin, for the record: paper PMC10202292
